What follows is a collection of IC50 values obtained with MAP4K1 (HPK1) (Homo sapiens, UniProt Q92918).
Sequence (Q92918 whole entry): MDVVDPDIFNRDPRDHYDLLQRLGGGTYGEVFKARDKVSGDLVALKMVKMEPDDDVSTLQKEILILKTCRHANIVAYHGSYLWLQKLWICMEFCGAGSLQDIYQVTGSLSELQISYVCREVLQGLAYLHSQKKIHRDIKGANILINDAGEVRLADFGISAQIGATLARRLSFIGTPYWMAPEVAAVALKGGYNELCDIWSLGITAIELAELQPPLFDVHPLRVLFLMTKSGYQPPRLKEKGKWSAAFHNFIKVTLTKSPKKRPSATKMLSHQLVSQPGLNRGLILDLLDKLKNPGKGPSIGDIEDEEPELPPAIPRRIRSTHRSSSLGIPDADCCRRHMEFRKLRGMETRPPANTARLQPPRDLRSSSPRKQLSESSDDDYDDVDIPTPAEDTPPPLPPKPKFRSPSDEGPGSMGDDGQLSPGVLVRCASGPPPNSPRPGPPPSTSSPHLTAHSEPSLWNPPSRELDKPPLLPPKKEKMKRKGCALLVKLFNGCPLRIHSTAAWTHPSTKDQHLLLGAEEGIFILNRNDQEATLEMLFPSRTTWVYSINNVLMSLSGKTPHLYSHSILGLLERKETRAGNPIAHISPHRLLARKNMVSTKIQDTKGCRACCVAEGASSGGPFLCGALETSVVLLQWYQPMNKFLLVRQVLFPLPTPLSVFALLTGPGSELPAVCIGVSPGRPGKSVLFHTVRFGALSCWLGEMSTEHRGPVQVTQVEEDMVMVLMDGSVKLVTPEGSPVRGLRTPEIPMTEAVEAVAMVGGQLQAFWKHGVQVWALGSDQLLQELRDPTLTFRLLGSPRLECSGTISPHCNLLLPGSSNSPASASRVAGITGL
PARAMETER: IC50 (nM)

The examples below pair each entry with its known result.
1) C[C@H](C[C@@H](C)S(C)(=O)=O)Oc1ncc(C(C)(C)N)c2cc(Nc3ccc4c(n3)C3(CC3)[C@@H](C)OC4=O)ncc12 (single isomer, unassigned) [Compound 65] ... 0.2
2) CC[C@@H](N)c1cnc(O[C@H]2C[C@@H](S(C)(=O)=O)C2)c2cnc(Nc3ccc4c(n3)[C@@H](C)C(C)(C)OC4=O)cc12 (single isomer, unassigned) [Compound 176] ... 0.23

A = CC[C@@](C)(N)c1cnc(O[C@H]2C[C@@H](CS(C)(=O)=O)C2)c2cnc(Nc3ccc4c(n3)[C@@H](C)C(C)(C)OC4=O)cc12 [Compound 114]
B = C[C@@H]1COC(=O)c2ccc(Nc3cc4c(C(C)(C)N)cnc(O[C@H]5C[C@@H](S(C)(=O)=O)C5)c4cn3)nc21 (single isomer, unassigned) [Compound 5]
Exercise: Endpoint returns whichever of A and B has the numerically higher IC50. Your answer should be the label attached to the chosen record.
Key: B
(B: 1.77 nM, A: 0.17 nM)

1 = C[C@@H]1c2nc(Nc3cc4c(C(C)(C)N)cnc(N[C@H]5C[C@@H](S(C)(=O)=O)C5)c4cn3)ccc2C(=O)OC1(C)C [Compound 28]
2 = C[C@@H]1OC(=O)c2ccc(Nc3cc4c(C(C)(C)N)cnc(OC5CS(=O)(=O)C5)c4cn3)nc2[C@H]1C [Compound 1]
Exercise: I need your help: which of the pair 1 , 2 has higher IC50? Give the label of your selection.
Key: 2
